Molecular target: T1, recombinant human LAG3 Fc Chimera Protein (R&D Systems, 2319-L3) (human, UniProt P18627 23-450)
T1 construct: Bought reagent
T1 sequence (looked up): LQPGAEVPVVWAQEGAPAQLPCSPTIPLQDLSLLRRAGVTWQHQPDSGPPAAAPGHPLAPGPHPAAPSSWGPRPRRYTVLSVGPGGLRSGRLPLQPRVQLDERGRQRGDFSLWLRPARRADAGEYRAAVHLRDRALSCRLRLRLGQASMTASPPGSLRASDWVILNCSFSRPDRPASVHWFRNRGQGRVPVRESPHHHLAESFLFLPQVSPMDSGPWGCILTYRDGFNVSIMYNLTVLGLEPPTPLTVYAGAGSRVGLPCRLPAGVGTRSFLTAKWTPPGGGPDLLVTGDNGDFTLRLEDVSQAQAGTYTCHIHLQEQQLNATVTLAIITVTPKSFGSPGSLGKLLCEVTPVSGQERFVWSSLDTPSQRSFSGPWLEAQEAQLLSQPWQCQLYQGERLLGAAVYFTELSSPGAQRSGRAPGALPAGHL
Assay: SPR (Biacore), aVH-Fc captured by anti-human Fc, human LAG-3 Fc chimera as analyte, 25 C
Parameter koff: see the listing below.
Give the quantity in s⁻¹, number only.

binder="bivalent 17D7 aVH-Fc (Fc fusion) EVQLVESGGGLVQPGGSLRLSCAASGFNIKDTCIGWVRRAPGKGTELVAEICTDIGYTRYADSVKGRFTISADTSKNTAYLQMNSLRAEDTAVYYCAAGEGSSGFHYWGQGTTVTVSSGGGGSGGGGSDKTHTCPPCPAPEAAGGPSVFLFPPKPKDTLMISRTPEVTCVVVDVSHEDPEVKFNWYVDGVEVHNAKTKPREEQYNSTYRVVSVLTVLHQDWLNGKEYKCKVSNKALGAPIEKTISKAKGQPREPQVYTLPPSRDELTKNQVSLTCLVKGFYPSDIAVEWESNGQPENNYKTTPPVLDSDGSFFLYSKLTVDKSRWQQGNVFSCSVMHEALHNHYTQKSLSLSPGK" display_unit=s⁻¹ value_observed=0.00018
binder="bivalent P11E2 aVH-Fc (Fc fusion) EVQLVESGGGLVQPGGSLRLSCAASGFNIKDTCIGWVRRAPGKGTELVAEICDDIGYTRYADSVKGRFTISADTSKNTAYLQMNSLRAEDTAVYYCASQEHQWSFKYWGQGTTVTVSSGGGGSGGGGSDKTHTCPPCPAPEAAGGPSVFLFPPKPKDTLMISRTPEVTCVVVDVSHEDPEVKFNWYVDGVEVHNAKTKPREEQYNSTYRVVSVLTVLHQDWLNGKEYKCKVSNKALGAPIEKTISKAKGQPREPQVYTLPPSRDELTKNQVSLTCLVKGFYPSDIAVEWESNGQPENNYKTTPPVLDSDGSFFLYSKLTVDKSRWQQGNVFSCSVMHEALHNHYTQKSLSLSPGK" display_unit=s⁻¹ value_observed=6.8e-05
binder="bivalent 9B4 aVH-Fc (Fc fusion) EVQLVESGGGLVQPGGSLRLSCAASGFNIKDTCIGWVRRAPGKGTELVAEICQDIGYTRYADSVKGRFTISADTSKNTAYLQMNSLRAEDTAVYYCAAVEVAEYFEYWGQGTTVTVSSGGGGSGGGGSDKTHTCPPCPAPEAAGGPSVFLFPPKPKDTLMISRTPEVTCVVVDVSHEDPEVKFNWYVDGVEVHNAKTKPREEQYNSTYRVVSVLTVLHQDWLNGKEYKCKVSNKALGAPIEKTISKAKGQPREPQVYTLPPSRDELTKNQVSLTCLVKGFYPSDIAVEWESNGQPENNYKTTPPVLDSDGSFFLYSKLTVDKSRWQQGNVFSCSVMHEALHNHYTQKSLSLSPGK" display_unit=s⁻¹ value_observed=0.00019
binder="bivalent P10C3 aVH-Fc (Fc fusion) EVQLVESGGGLVQPGGSLRLSCAASGFNIKDTCIGWVRRAPGKGTELVAEICTDAGYTRYADSVKGRFTISADTSKNTAYLQMNSLRAEDTAVYYCAASESPSGFRYWGQGTTVTVSSGGGGSGGGGSDKTHTCPPCPAPEAAGGPSVFLFPPKPKDTLMISRTPEVTCVVVDVSHEDPEVKFNWYVDGVEVHNAKTKPREEQYNSTYRVVSVLTVLHQDWLNGKEYKCKVSNKALGAPIEKTISKAKGQPREPQVYTLPPSRDELTKNQVSLTCLVKGFYPSDIAVEWESNGQPENNYKTTPPVLDSDGSFFLYSKLTVDKSRWQQGNVFSCSVMHEALHNHYTQKSLSLSPGK" display_unit=s⁻¹ value_observed=8.9e-05
binder="bivalent P11E9 aVH-Fc (Fc fusion) EVQLVESGGGLVQPGGSLRLSCAASGFNIKDTCIGWVRRAPGKGTELVAEICHDIGYTRYADSVKGRFTISADTSKNTAYLQMNSLRAEDTAVYYCAAEEHVASFEYWGQGTTVTVSSGGGGSGGGGSDKTHTCPPCPAPEAAGGPSVFLFPPKPKDTLMISRTPEVTCVVVDVSHEDPEVKFNWYVDGVEVHNAKTKPREEQYNSTYRVVSVLTVLHQDWLNGKEYKCKVSNKALGAPIEKTISKAKGQPREPQVYTLPPSRDELTKNQVSLTCLVKGFYPSDIAVEWESNGQPENNYKTTPPVLDSDGSFFLYSKLTVDKSRWQQGNVFSCSVMHEALHNHYTQKSLSLSPGK" display_unit=s⁻¹ value_observed=2.4e-05

Okay, next one:
# binder bivalent 19G3 aVH-Fc (Fc fusion) EVQLVESGGGLVQPGGSLRLSCAASGFNIKYQCIGWVRRAPGKGTELVAEICSYDGYTRYADSVKGRFTISADTSKNTAYLQMNSLRAEDTAVYYCAAEESVEGFIYWGQGTTVTVSSGGGGSGGGGSDKTHTCPPCPAPEAAGGPSVFLFPPKPKDTLMISRTPEVTCVVVDVSHEDPEVKFNWYVDGVEVHNAKTKPREEQYNSTYRVVSVLTVLHQDWLNGKEYKCKVSNKALGAPIEKTISKAKGQPREPQVYTLPPSRDELTKNQVSLTCLVKGFYPSDIAVEWESNGQPENNYKTTPPVLDSDGSFFLYSKLTVDKSRWQQGNVFSCSVMHEALHNHYTQKSLSLSPGK ; its koff = 0.00029
